// data source = PubChem BioAssay (NCI)

Test system: SF-295 CNS
assayName: NCI-60 one-dose screen, 48 h (100 = growth as untreated, 0 = no growth, -100 = all killed)
protocolConditions: 10 µM unless noted
About 83,000 compounds went through this panel and 20% of them were active in at least one assay; those are over-represented in the sample as a whole.
property: growth (%)
Give just the number in %; leave the unit off.

QUERY: Fill blank: measured growth of the compound `O=C1c2cc3c(cc2-c2c1c1ccc(F)cc1c(=O)n2CCCN1CCOCC1)OCO3` is ____.
RESULT: 21.7

QUERY: Fill blank: measured growth of the compound `c1ccc2c(-c3nc(-c4c[nH]c5ncccc45)cs3)c[nH]c2c1` is ____.
RESULT: 119

QUERY: Fill blank: measured growth of the compound `Cc1cc(N=O)cc(C(C)(C)C)c1O` is ____.
RESULT: 99

QUERY: Fill blank: measured growth of the compound `N#C/C(=C\c1ccc(-c2ccccc2)o1)c1nc(-c2ccco2)cs1` is ____.
RESULT: 97.6

QUERY: Fill blank: measured growth of the compound `O=C1c2cccc3cccc(c23)C(=O)N1CC#Cc1ccc2c3c(cccc13)C(=O)N(CCN1CCNCC1)C2=O` is ____.
RESULT: 94.1

QUERY: Fill blank: measured growth of the compound `CCNCCCn1c2c(c3ccc([N+](=O)[O-])cc3c1=O)C(=O)c1cc(OC)cnc1-2` is ____.
RESULT: -1.1
